study-target: recombinant homotrimeric HA A/South Carolina/1/18 H1N1 (Influenza A virus A/South Carolina/1/18 (H1N1))
method-description: protein microarray, purified IgG, trimeric HA
recorded-conditions: remark: other sources report otherwise
measured-attribute: Trimeric HA Binding: RLU (RLU)
Return type: number; implicit unit RLU.

Please review the entries below; each comes with its answer.
binder	val
TCN-531 (5091_H13) (antibody, V domains shown) VH: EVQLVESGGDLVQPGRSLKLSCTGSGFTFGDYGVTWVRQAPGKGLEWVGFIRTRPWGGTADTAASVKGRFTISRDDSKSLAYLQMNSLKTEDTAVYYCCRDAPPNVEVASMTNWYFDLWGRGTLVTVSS VL: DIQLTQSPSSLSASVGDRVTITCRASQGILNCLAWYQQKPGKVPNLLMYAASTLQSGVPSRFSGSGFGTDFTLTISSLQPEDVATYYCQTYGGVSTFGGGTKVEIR	56
TCN-553 (5261_C18) (antibody, V domains shown) VH: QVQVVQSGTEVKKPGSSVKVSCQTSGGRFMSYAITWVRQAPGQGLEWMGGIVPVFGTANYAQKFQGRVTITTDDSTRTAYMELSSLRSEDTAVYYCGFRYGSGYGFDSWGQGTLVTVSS VL: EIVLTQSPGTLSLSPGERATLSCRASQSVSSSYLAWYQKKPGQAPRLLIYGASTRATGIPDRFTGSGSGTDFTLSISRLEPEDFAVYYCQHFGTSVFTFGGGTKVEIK	20600

Let us examine a further case.
In: What value of Trimeric HA Binding: RLU has been recorded for this entry: TCN-558 (5248_H10b) (antibody, V domains shown) VH: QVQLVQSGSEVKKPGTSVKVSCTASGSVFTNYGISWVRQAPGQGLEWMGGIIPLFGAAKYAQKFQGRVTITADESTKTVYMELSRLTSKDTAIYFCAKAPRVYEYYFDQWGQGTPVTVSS VL: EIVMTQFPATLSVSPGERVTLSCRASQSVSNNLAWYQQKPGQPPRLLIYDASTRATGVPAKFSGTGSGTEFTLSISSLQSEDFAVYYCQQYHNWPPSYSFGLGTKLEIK
Out: 13600
